# System: HCT-15 colon
# RUN DESCRIPTION: NCI-60 one-dose screen, 48 h (100 = growth as untreated, 0 = no growth, -100 = all killed)
# ASSAY SETUP: 10 µM unless noted
The panel holds about 83,000 compounds, 20% with a hit somewhere; the sample as a whole holds those more often.
ASSAY METRIC: growth (%)
Numeric answer only, unit % assumed.

MOLECULE | VALUE UNITS | growth
CC(Oc1ccc(C(=O)NS(=O)(=O)C(C)(C)C)cc1C(F)(F)F)c1ccc(Oc2ccccc2)cn1 (stereo unspecified) | % | 41.5

So, NNC(=O)/C(=C\c1ccc([N+](=O)[O-])cc1)CC(=O)c1ccc(Cl)c(Cl)c1 ? Its growth was 89.6

Summary for this molecule, NC(=S)N/N=C(/c1ccccc1)c1ccccc1N : growth is 84.7

====

# System: HOP-92 NSCLC
# RUN DESCRIPTION: NCI-60 one-dose screen, 48 h
# ASSAY SETUP: 10 µM unless noted
Compounds without any hit were thinned out: in the full panel of roughly 83,000, 20% have a hit. The source made the active and inactive calls. The calls were made as follows: active = growth percent below 10; inactive = the rest.
Result category, one only: label 1 (active), label 0 (inactive)

Answered cases to consult:
MOLECULE | TARGET SYSTEM | CLASS NAME
c1ccc(N2N=C(c3cccc(Nc4ccncc4)c3)CC2c2ccc3c(c2)OCO3)cc1 (centres undefined) | HOP-92 NSCLC | label 0
CCN(CC)CCCC(Nc1c2ccc(Cl)cc2nc2ccc(OC)cc12)c1ccc(Cl)cc1 (centres undefined) | HOP-92 NSCLC | label 1
COc1ccc(-c2ncc(-c3ccccc3)[nH]2)cc1OC | HOP-92 NSCLC | label 0
COc1cc(C2CC(c3cccc(Nc4ccncc4)c3)=NN2c2ccccc2)cc(OC)c1OC (centres undefined) | HOP-92 NSCLC | label 0

Input line: Hi, sorry to bother you, what did the test record for C[C@]12C[C@H]1CC[C@]1(C)[C@@H]2CC[C@@]23C[C@H](CC[C@H]21)[C@@](O)(CO)C3 ?
Output line: label 0

Input line: Name the outcome recorded for CNC(=O)NCC1OC(n2cnc3c(NC(=O)Nc4ccccc4)ncnc32)C(O[Si](C)(C)C(C)(C)C)C1O[Si](C)(C)C(C)(C)C (centres undefined) in the assay.
Output line: label 1

Input line: How was COc1ccc(/C=C/C(=O)c2ccc(OC)c(OC)c2)cc1O classified in this test?
Output line: label 0

Input line: Hey, what did the test say about Clc1ccc(C2CC(c3cccc(Nc4ccncc4)c3)=NN2c2ccc(Cl)cc2)cc1 (centres undefined) ?
Output line: label 0

Input line: Please let me know the test result on file for O=C(Nc1ccc2cc3ccc(NC(=O)NC4CCCCC4)cc3nc2c1)NC1CCCCC1 .
Output line: label 0

====

# Test system: SR leukemia
# RUN DESCRIPTION: NCI-60 one-dose screen, 48 h (100 = growth as untreated, 0 = no growth, -100 = all killed)
# ASSAY SETUP: 10 µM unless noted
About 83,000 compounds went through this panel and 20% of them were active in at least one assay; those are over-represented in the sample as a whole.
Each record here notes measured growth.
Give your result in % as a bare value.

Input ClCC1(Cn2cnc3c(Cl)nc(Cl)nc32)COC1 . Output growth: 86.1

In plain terms, CS(=O)(=O)c1ccc(-c2cc(-c3nnc(SCC(=O)Nc4ccc(C(=O)/C=C/c5ccc(Cl)cc5)cc4)n3-c3ccccc3)c3ccccc3n2)cc1 has a documented growth of 94.1

Entry under test: CCCCCN1C=C/C(=C\C(=O)N(C)c2cccc3ccccc23)c2ccccc21 . Its growth was 81.5

The reported growth of the compound CC1CCN(C(=O)OCc2nc3nc(Cl)nc(N4CCOCC4)c3[nH]2)CC1 was -28.6

Lab note: measured growth of O=C(O)c1ccc[n+](CC(=O)N2CCN(c3cc4c(cc3F)c(=O)c(C(=O)O)cn4C3CC3)CC2)c1 was 17.2

CN1CCN(CCCNc2nccc(-c3c(-c4ccc(F)c(O)c4)nc4sccn34)n2)S1(=O)=O yielded growth of 58.1

Given item C#CCNC(=O)[C@H](Cc1ccccc1)NC(=O)[C@]12CC[C@@H](C(=C)C)[C@@H]1[C@H]1CC[C@@H]3[C@@]4(C)Cc5c([nH]c6ccccc56)C(C)(C)[C@@H]4CC[C@@]3(C)[C@]1(C)CC2 , the value recorded as its growth is 88.5

Recorded result, COc1ccc(-c2c[nH]c(C(=O)O)c2-c2cc(OC)c3c(c2OC)OCO3)cc1 , growth: 106

====

# Test system: HT29 colon
# RUN DESCRIPTION: NCI-60 one-dose screen, 48 h
# ASSAY SETUP: 10 µM unless noted
The panel holds about 83,000 compounds, 20% with a hit somewhere; the sample as a whole holds those more often. Active and inactive are the calls of the source. How the source made its calls: active means growth percent below 10; inactive means the rest.
Returns: one label drawn from active, inactive

Example cases with answers are listed next.
MOLECULE | TARGET SYSTEM | CLASS NAME
c1ccc(-c2nn(-c3ccccc3)[n+](-c3cccc4ccccc34)n2)cc1 | HT29 colon | inactive
O=C(/C=C/c1ccc[nH]1)c1ccc(-n2ccc(C(F)(F)F)n2)cc1 | HT29 colon | inactive
O=C(Nc1ccc2ncnc(Nc3ccc(Oc4cccc(F)c4)c(Cl)c3)c2c1)c1ccc(CNCCO)cc1 | HT29 colon | active
CCCCCOc1ccc(/C=N/Nc2cc(C)nc3ccc(Br)cc23)cc1 | HT29 colon | active
Clc1cc(Cl)cc(N2N=C(c3cccc(Nc4ccncc4)c3)CC2c2ccc(Br)cc2)c1 (stereo not given) | HT29 colon | active
Cc1ccc(S(=O)(=O)Nc2ccc(Cl)cc2)cc1 | HT29 colon | inactive
CCc1nc(C)cn1C(=O)OCc1nc2nc(Cl)nc(N3CCOCC3)c2[nH]1 | HT29 colon | active
COc1ccc(/C=C2\COc3ccc(-c4ccccc4)cc3C2=O)cc1O | HT29 colon | inactive

Input line: Can you look up the reported call for O=C(O)c1cn(C2CC2)c2cc(N3CCN(C(=O)C[n+]4cccc5ccccc54)CC3)c(F)cc2c1=O for me?
Output line: inactive

Input line: In this assay, the call recorded for NC(=O)c1cccc(-c2cc(C(N)=O)ccc2Cl)c1 was what?
Output line: active

Input line: Dear all, I need the recorded test outcome for Cc1[nH]n(-c2cccc(Cl)c2)c(=O)c1/C=C1\C=Nc2ccc(Br)cc21 , thank you.
Output line: inactive

Input line: Dear all, I need the recorded test outcome for NC(=O)c1ncn(C2OC(CO)C(O)C2O)n1 (stereo not given) , thank you.
Output line: inactive

Input line: # outcome recorded in this test, key = Fc1ccc(-n2cc(COc3ncnc4sc5c(c34)CCCC5)nn2)cc1Cl
Output line: inactive

Input line: Name the outcome recorded for Clc1cc(Cl)cc(N2N=C(c3cccc(Nc4ccncc4)c3)CC2c2ccc3c(c2)OCO3)c1 (stereo not given) in the assay.
Output line: active

====

# System: MALME-3M melanoma
# RUN DESCRIPTION: NCI-60 one-dose screen, 48 h
# ASSAY SETUP: 10 µM unless noted
About 83,000 compounds went through this panel and 20% of them were active in at least one assay; those are over-represented in the sample as a whole. Calls of active or inactive are those of the source. Rule for the calls: active = growth percent below 10; inactive = the rest.
Your reply should match one of these outcome classes. yes for active, no for inactive

Example cases with answers are listed next.
COMPOUND | CLASS NAME
CCCCCCCCCCCCCCCC(=O)OC[C@@]1(O)C[C@@]23CC[C@@H]4C(C)(C)[C@H](O)CC[C@@]4(C)[C@@H]2CC[C@H]1C3 | no
O=C(Nc1nc2ccc(S(=O)(=O)Nc3ccc(C4(C(F)(F)F)CC4)cc3)cc2[nH]1)c1cnccn1 | no
CCOC(=O)Oc1c(OC)cc(C(=O)O[C@@H]2C[C@@H]3CN4CCc5c([nH]c6cc(OC)ccc56)[C@H]4C[C@@H]3[C@H](C(=O)OC)[C@H]2OC)cc1OC | no
Cc1nn(-c2ccccc2)c(N2CCOCC2)c1/C=N/N=c1\sc2ccccc2n1C | no
COc1ccc(/C=N/C2=C(C#N)C(c3ccccc3[N+](=O)[O-])c3ccc4ccccc4c3O2)cc1 (stereo not drawn) | no
CC(C)Cc1ccc(C(C)C(=O)NCc2ccc(Cn3c(=O)sn(-c4ccc(Cl)cc4)c3=O)cc2)cc1 (stereo not drawn) | no

Input line: Identify the outcome logged in this assay for the compound shown: CN(C)C(=O)c1cc2cnc(Nc3ccc(-c4csc5c(=O)cc(N6CCOCC6)oc45)cc3)nc2n1C1CCCC1
Output line: yes

Input line: Can you look up the reported call for CS(=O)(=O)c1ccc(-c2cc3c(oc2=O)-c2ccccc2OC3O)cc1 (stereo not drawn) for me?
Output line: no

====

Overview of reported growth across a group of compounds:
# Tested on: HCT-116 colon
# RUN DESCRIPTION: NCI-60 one-dose screen, 48 h (100 = growth as untreated, 0 = no growth, -100 = all killed)
# ASSAY SETUP: 10 µM unless noted
Compounds without any hit were thinned out: in the full panel of roughly 83,000, 20% have a hit.
Report the value in % with no unit label.

Below, 4 compounds whose answers are already recorded.
COMPOUND | TARGET SYSTEM | ASSAY METRIC | VALUE UNITS | RESULT
[2H]C1([2H])NC([2H])([2H])C([2H])([2H])N(c2ccc(Nc3ncc4cc(C(=O)N(C)C)n(C5CCCC5)c4n3)nc2)C1([2H])[2H] | HCT-116 colon | growth | % | 55.3
Cc1ccc(/C=C/C(=O)c2ccc(N)cc2)c(C)c1 | HCT-116 colon | growth | % | 35.8
COc1ccc2c(c1)OC1=C(C(=O)OC1)C2c1cc(OC)c(OC)c(OC)c1 (stereo not given) | HCT-116 colon | growth | % | 19.3
COc1cccc(CCC(=O)c2cc3c(N)c(C(=O)Nc4ccccc4)sc3nc2C)c1 | HCT-116 colon | growth | % | 14.4

Quick note, growth for C/C(=C(/c1ccccc1)c1ccc(OCC(O)CNCCN2CCOCC2)cc1)c1ccccc1 (stereo not given) landed at 106
